I'd be grateful if you could share measured soluble fraction (log2) for these entries.
# test method notes: soluble fraction after stress (log2 fold change); higher = more stays soluble; pooled small domains, quantitative proteomics
# conditions: stress: 50 degC
Write the number on its own, no unit after it.

# input Any idea what soluble fraction (log2) was measured for "HMELDIGKKAIVIEKIDPEAGTGRVRIEGVDWGAKTADSSVIEKGETVVVKAKGAAFVTVAK" ?
# output 0.18

# input Any idea what soluble fraction (log2) was measured for "HMTSNIIIVPNVVGMTKEQATAALAAAGLNIKLSGVETTDTAAVAVKQKPSANTKVEEGSVVTVEFDLK" ?
# output 0.0533

# input Any idea what soluble fraction (log2) was measured for "HMETIHEMVNRLSSEGFIKNEDGIWYLRDRRGDGTKWLKNPFFESTGEKDAFALIDHLKVNDELLSKLRK" ?
# output -0.3

# input Any idea what soluble fraction (log2) was measured for "HMEDLAERLDNLSTMYAKMDPVRAAQVLLESKNKSENIEVLKRLKPKSLGLILENMPPREAYDYVSELQ" ?
# output 0.0712

# input Any idea what soluble fraction (log2) was measured for "HMGAGLKIGNDHEYANYLEYKVSVEKYAPGAILGEIKQKGIQFNTTISKTTFYRYITDGVFLTITNADLPV" ?
# output 0.223

# input Any idea what soluble fraction (log2) was measured for "HMNSKQELAYQTIRARIVDGSYGPGYRIVIDEVARELGVSPIPVREAVRRLEAEGLITYTRHAGARVVA" ?
# output -0.184

# input Any idea what soluble fraction (log2) was measured for "HMEKYIVNQEEQGKRLDIYVVNKSSELTRTAVQRLIEQEHILVNGRKQKASYKVLEGDIITIERV" ?
# output 0.573

# input Any idea what soluble fraction (log2) was measured for "HMGREVVVPNLAGIEKEVALDLLKKNRLGGMITGTRFSSDFPAGQVIQQMPEAGSRVKVGKQVKLVLSEG" ?
# output 0.323

# input Any idea what soluble fraction (log2) was measured for "HMEWTVEKQAAATLNAWMRKNSEMTSEKKVAVAAGIGPATVNRIMKAEVSTTIGVLSSLARAFGHEAYEMI" ?
# output -0.276

# input Any idea what soluble fraction (log2) was measured for "HMETVSFNPDIAVIPDYRHVVILGETTKTIANKYDIPVDILKAANPGLGNNVTKGDRLRVPDKTKLQ" ?
# output 0.155

# input Any idea what soluble fraction (log2) was measured for "HMVIVGGDVIVHYVDTEGKKISDDVVKSGNVGEDYSTDQKTILGYRFKEVQGNTSGKFTDKTQVVTYIYT" ?
# output 0.404

# input Any idea what soluble fraction (log2) was measured for "HMNRREFQFSEGSSNKFWSIELRDQSFIVHYGKIGTNGQAQEKTFATADAAKKEHDKLIAEKTKKGYVEVQ" ?
# output -0.392

# input Any idea what soluble fraction (log2) was measured for "HMNTELSPKVWDVVQEFILYRKEIKAPMTEHAVKLLIGQLQKLSSDPDEQIEILRQSIVNGWKGIFSLK" ?
# output -0.183

# input Any idea what soluble fraction (log2) was measured for "HMNSNTIIINDIMTKIGKEVKNFTEIYSIILKALAEHGEEYVRTNTEYALKNFTGNFDIFLEQLLLK" ?
# output -0.201

# input Any idea what soluble fraction (log2) was measured for "HMLAAGTSLTVDTESSNLNIRQEPSTEGVILGKAAKGEVVTLVEQSSDEWWKIKTKDGEEGYAYARYLR" ?
# output 0.203

# input Any idea what soluble fraction (log2) was measured for "HMSYYKEMIRLADSIADKAHEGQTDRNGWPYISHPRRVALGARKLVSEMASSTSPDTSLEELKAEVQIVAL" ?
# output -0.288

# input Any idea what soluble fraction (log2) was measured for "HMKLTALWTANPKISAPIYSEPSTQSKTLGRIYQGASVKVYSFDPEWAYINSSGVVGYVLRRHLE" ?
# output -0.323

# input Any idea what soluble fraction (log2) was measured for "HMGDSFLDHKKELQSMILSRLDLSREVPDEEIKDIIDELIIAQSKKLFLSLNDRGKLRQELFYSIRK" ?
# output -0.566

# input Any idea what soluble fraction (log2) was measured for "HMHPMVEAYLADLDRALSGSDPREHAETMSAVREHLADAIAPDATAEQVRHALDELGPVEAIAAG" ?
# output 0.0172

# input Any idea what soluble fraction (log2) was measured for "HMKKGATVSGVIVEKTKKSLIIDLGAKTEGVVADKEFEFAIDFVKELKKGDEVKAIVISTDNDKGQVVLSL" ?
# output -0.155

# input Any idea what soluble fraction (log2) was measured for "HMQTYNQLKRGMTEWIQAGQKQKAYELFAGVAGQLSLSSAAGKKQYNELVTILNRAGFGIPLE" ?
# output -0.428

# input Any idea what soluble fraction (log2) was measured for "HMEIEEIDYGTFLQMVEDGVVEKIELTDTQIFLTSTVDNDDKVYTTGVMPDQDLTNRLIEAGVVNFGKVV" ?
# output -0.21
